For each record, check the reported logP: if it is below 2 write true (1), else write false (0).

| COMPOUND | CATEGORY LABEL |
| --- | --- |
| NNC(=O)c1ccccc1O | true (1) |
| Nc1ccc(Cl)cc1C(=O)O | true (1) |
| O=C(O)CSc1c[nH]c2ccccc12 | true (1) |
| NC(=S)c1cccnc1 | true (1) |
| Cc1cccc(C)c1[N+](=O)[O-] | false (0) |
| CC(CO)NC1=C(N2CC2)C(=O)C(NC(C)CO)=C(N2CC2)C1=O (stereo unspecified) | true (1) |
| C1=CC=CC=CC=C1 | false (0) |
| CC1=Nc2ccc(Cl)cc2S(=O)(=O)N1 | true (1) |
| NC(=O)OCCC1=C(N2CC2)C(=O)C(Br)=C(N2CC2)C1=O | true (1) |
| COc1ccc2cnccc2c1 | false (0) |
| c1ccc(-c2nc3ccccc3s2)cc1 | false (0) |
| Cc1cccc(C)c1O | false (0) |
| CNCCNC | true (1) |
| NC(=O)N(CCCCCCN(N=O)C(N)=O)N=O | true (1) |
| CCC(C)NC(=O)C=Cc1ccccc1 (stereo unspecified) | false (0) |
| NCc1ccc([N+](=O)[O-])cc1 | true (1) |
| CC(=O)OC(OC(C)=O)c1ccccc1 | true (1) |
| O=C(O)C1c2ccccc2-c2ccccc21 | false (0) |
| O=C1CCCCCCCN1 | true (1) |
| CCN(CC)CCCN(c1ccccc1)C1Cc2ccccc2C1 | false (0) |
| C=CCC1(CC)C(=O)NC(=O)NC1=O | true (1) |
| COC(=O)c1ccccc1C(=O)O | true (1) |
| CC(=O)c1cccc(C(C)=O)c1 | true (1) |
| CC(Oc1ccccc1)C(=O)N[C@@H]1C(=O)N2[C@@H]1SC(C)(C)[C@@H]2C(=O)O (stereo partly specified) | false (0) |
| CCCCNC(=O)Cn1cnc([N+](=O)[O-])n1 | true (1) |
| O=[N+]([O-])c1nccn1CC(O)CF (stereo unspecified) | true (1) |
| O=S(=O)(c1ccccc1)c1ccc2ncccc2c1 | false (0) |
| c1ccc2c(c1)sc1ccccc12 | false (0) |
| O=S(=O)(CCl)c1ccccc1 | true (1) |
| Brc1cnc2ccccc2c1 | false (0) |

* * *

// map logP to label using interval 1 (below 0.9), interval 2 (0.9 to below 2), interval 3 (2 or more)

| COMPOUND | CATEGORY LABEL |
| --- | --- |
| NC(=O)CI | interval 1 |
| CN(C)O | interval 1 |
| O=C1C=CCCC1 | interval 1 |
| CC1CC2C3CC(F)C4=CC(=O)C(Cl)=CC4(C)C3(F)C(O)CC2(C)C1(O)C(=O)CO (centres undefined) | interval 3 |
| NS(=O)(=O)c1ccc(C(=O)O)cc1 | interval 1 |
| COc1ccc(C(O)C(C(=O)O)c2ccc(-c3ccccc3)cc2)cc1 (centres undefined) | interval 3 |
| NC12CC3CC(CC(C3)C1)C2 | interval 3 |
| Nc1nc(N)nc(-c2cccc(C(F)(F)F)c2)n1 | interval 3 |
| NCCCCc1ccncc1 | interval 1 |
| CCOC(OCC)OCC | interval 2 |
| CCC(Cl)(CC)C(=O)NC(N)=O | interval 2 |
| CCCCCCCCOC(=O)n1cnc(CC(NC(=O)C2CCC(=O)N2)C(=O)N2CCCC2C(N)=O)c1 (centres undefined) | interval 2 |
| O=[N+]([O-])c1ccc(Br)cc1 | interval 3 |
